Residues, ends and D or L forms follow the SMILES beside them.
result-type: random coil content (%)
One number for each entry, in %.

For the compound CC[C@H](C)[C@H](NC(=O)[C@H](CCCCN)NC(=O)[C@H](Cc1c[nH]cn1)NC(=O)[C@H](CC(C)C)NC(=O)[C@H](CC(C)C)NC(=O)[C@H](Cc1ccccc1)NC(=O)[C@H](CC(N)=O)NC(=O)[C@@H](N)C(C)C)C(=O)N[C@@H](Cc1ccc(O)cc1)C(=O)NCC(=O)N[C@@H](CC(N)=O)C(=O)N[C@H](C(=O)N[C@@H](CCCNC(=N)N)C(=O)N[C@@H](Cc1ccc(O)cc1)C(=O)N[C@@H](CO)C(N)=O)[C@@H](C)CC [L1] (H-VNFLLHKIYGNIRYS-NH2) , what random coil content is on record? 33.4

###

Residues, ends and D or L forms follow the SMILES beside them.
result-type: α-helical content (%)
Answers are plain numbers, in %.

For the compound CC[C@H](C)[C@H](NC(=O)[C@H](CCCCN)NC(=O)[C@H](Cc1c[nH]cn1)NC(=O)[C@H](CC(C)C)NC(=O)[C@H](CC(C)C)NC(=O)[C@H](Cc1ccccc1)NC(=O)[C@H](CC(N)=O)NC(=O)[C@@H](N)C(C)C)C(=O)N[C@@H](Cc1ccc(O)cc1)C(=O)NCC(=O)N[C@@H](CC(N)=O)C(=O)N[C@H](C(=O)N[C@@H](CCCNC(=N)N)C(=O)N[C@@H](Cc1ccc(O)cc1)C(=O)N[C@@H](CO)C(N)=O)[C@@H](C)CC [L1] (H-VNFLLHKIYGNIRYS-NH2) , what α-helical content is on record? 34.6

###

Tested on: Escherichia coli
Type: cell-based
Settings: 2 h, pH 7.6
Protocol: Seven bacteria including Vibrio parahaemolyticus, Vibrio fluvialis, Vibrio alginolyticus, Escherichia coli, Aeromonas hydrophila, Staphylococcus aureus and Streptococcus pyogenes were grown in LB medium at 30 °C and diluted to 10^6 CFU/mL in 0.01 M, pH 7.6 PBS. Peptides were diluted in PBS. […] GraphPad prism 6 was used to analyze the data with the statistical significance determined by one-way ANOVA and Student’s t test, and all experiments were carried out in triplicate.
Residues, ends and D or L forms follow the SMILES beside them.
result-type: MIC E. coli (µg/mL)
Give bare numbers, in µg/mL.

For the record CC[C@H](C)[C@H](NC(=O)[C@H](CCCCN)NC(=O)[C@H](Cc1c[nH]cn1)NC(=O)[C@H](CC(C)C)NC(=O)[C@H](CC(C)C)NC(=O)CNC(=O)[C@H](CC(N)=O)NC(=O)[C@@H](N)C(C)C)C(=O)N[C@@H](Cc1ccc(O)cc1)C(=O)NCC(=O)N[C@@H](CC(N)=O)C(=O)N[C@H](C(=O)N[C@@H](CCCNC(=N)N)C(=O)N[C@@H](Cc1ccc(O)cc1)C(=O)N[C@@H](CO)C(N)=O)[C@@H](C)CC [M1] (H-VNGLLHKIYGNIRYS-NH2) , what value of MIC E. coli is listed for Escherichia coli? 15.6

Below: the item to evaluate.
For the record CC[C@H](C)[C@H](NC(=O)[C@H](Cc1c[nH]cn1)NC(=O)[C@H](C)NC(=O)[C@@H](NC(=O)[C@H](CC(N)=O)NC(=O)[C@H](Cc1c[nH]cn1)NC(=O)[C@H](CC(C)C)NC(=O)[C@H](C)NC(=O)CNC(=O)[C@H](Cc1ccc(O)cc1)NC(=O)[C@@H](N)Cc1ccc(O)cc1)[C@@H](C)O)C(=O)N[C@H](C(=O)N[C@@H](CC(C)C)C(=O)NCC(=O)N[C@@H](CCCNC(=N)N)C(N)=O)C(C)C [L12] (H-YYGALHNTAHIVLGR-NH2) , what value of MIC E. coli is listed for Escherichia coli? 125
